Provenance of the data: ChEMBL document CHEMBL4689842

Tested on: Fibroblast
Experiment Description: Multiplex assay against human fibroblast
Format: toxicity, cell-based
Condition Label: 48 h, 10 µM, compound concentration 10 uM, replicate 1
Field: class. Source value: Population Mitotic Cells (%). Ranges: bottom = under 20%, middle = from 20% up to 40%, top = 40% and over

{"columns": ["Compound", "Answer Label"],
 "data": [
  ["CCCc1cc(C)[nH]c(=O)c1CNC(=O)c1cc(-c2ccc(N3CCN(C(C)C)CC3)nc2)cc2c1cnn2C(C)C", "middle"],
  ["C[C@@H](Oc1cc(-n2cnc3ccc(CN4CCN(C)CC4)cc32)sc1C(N)=O)c1ccccc1C(F)(F)F", "bottom"],
  ["CCCCCNC(=N)N/N=C/c1c[nH]c2ccc(OC)cc12.O=C(O)/C=C\\C(=O)O [TEGASEROD MALEATE]", "middle"],
  ["CC(/C=C1\\SC(=S)N(CCCC(=O)Nc2ccc(C(=O)O)c(O)c2)C1=O)=C\\c1ccccc1", "middle"],
  ["CN1C(=O)[C@@H](NC(=O)c2cc3ccccc3[nH]2)N=C(c2ccccc2)c2ccccc21 [DEVAZEPIDE]", "middle"],
  ["CC(C)c1cc(Nc2nc(N3CCC[C@H](N)C3)ncc2C(N)=O)cc(C(C)C)n1", "bottom"],
  ["Cc1c(P(=S)(c2ccccc2)c2ccccc2)n2ccccc2[n+]1C/C=C/c1ccccc1.[Br-]", "bottom"],
  ["CN(c1cc(C(F)(F)F)nc(OCCC(=O)O)n1)c1cccc2c1CCC2", "top"],
  ["N#Cc1cccc(C(=O)Nc2cc(-c3ccccc3)nn2-c2ccccc2)c1", "top"],
  ["Cl.NC[C@@H]1O[C@H](C23CC4CC(CC(C4)C2)C3)Cc2c1ccc(O)c2O", "middle"],
  ["CCCCN(CC)c1nc(C)nc2c1c(C)cn2-c1c(C)cc(C)cc1C.Cl", "middle"],
  ["CC(C)C[C@H](NC(=O)[C@H](Cc1ccccc1)NC(=O)CNC(=O)CNC(=O)[C@@H](N)Cc1ccc(O)cc1)C(=O)O", "top"],
  ["Cc1c(Nc2ccc(S(=O)(=O)N3CCN(C)CC3)cc2F)nc2ccc(-c3cnn(C4CC4)c3)cn2c1=O", "top"],
  ["CC(Cc1ccc(O)c(O)c1)C(C)Cc1ccc(O)c(O)c1 (stereo not given) [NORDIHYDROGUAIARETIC ACID]", "bottom"],
  ["Oc1cccc(-c2nc(N3CCOCC3)c3oc4ncccc4c3n2)c1", "top"],
  ["C=CC(=O)Nc1cc(-n2c(=O)ccc3cnc4ccc(-c5ccc(NS(C)(=O)=O)cc5)cc4c32)ccc1C", "middle"],
  ["Cc1ccc(S(=O)(=O)NC2c3ccccc3Oc3ccccc32)cc1", "top"],
  ["CC(C)[C@H](CO)Nc1nc(Nc2cccc(Cl)c2)c2ncn(C(C)C)c2n1", "bottom"]
]}
